Exercise: for every item that follows, state its recorded Activity.
Tested on: Rattus norvegicus
test-name: In vivo modulation of gamma secretase in rat assessed as reduction in Abeta42 levels in CSF at 30 mg/kg, po measured after 6 hrs by ELISA relative to control
Type: functional, Cerebrospinal fluid
Set-up: scale not given: the % may be the effect or the level left
// units = %; emit number, no label

Record COc1nc(C2=NOC(C)C(c3ccc(Cl)cc3)N2)ccc1-n1cnc(C)c1 (centres undefined) has Rattus norvegicus Activity equal to 84

Record COc1nc(C2=NOC(C3CC3)C(c3ccc(Cl)cc3)N2)ccc1-n1cnc(C)c1 (centres undefined) has Rattus norvegicus Activity equal to 88

Record COc1nc(C2=NOC[C@H](c3cc4ccccc4o3)N2)ccc1-n1cnc(C)c1 has Rattus norvegicus Activity equal to 58

Record COc1nc(C2=NOC(C)C(c3ccc(Cl)c(F)c3)N2)ccc1-n1cnc(C)c1 (centres undefined) has Rattus norvegicus Activity equal to 73

====

test-name: Clearance in dog at 0.5 mg/kg, iv
Type: ADME, organism-based, Canis lupus familiaris
measurement-parameters: in vivo
property-measured: clearance (mL/min/kg)
// units = mL/min/kg; emit number, no label

Notebook: COc1nc(C2=NOC(C3CC3)C(c3ccc(Cl)cc3)N2)ccc1-n1cnc(C)c1 (stereo unspecified) , clearance read as 3.4

====

Exercise: for every item that follows, state its recorded log10 of CL free.
test-name: Unbound clearance in human hepatocytes
Assay type: ADME, cell-based, Hepatocyte
In our notation, the value equals log10 of CL free in mL/min/kg.

Notebook: COc1nc(C2=NOCC(c3ccc(Cl)c(C(F)(F)F)c3)N2)ccc1-n1cnc(C)c1 (stereo not given) , log10 of CL free read as 0.78

Notebook: COc1nc(C2=NOC(C)(C)C(c3ccc(Cl)cc3)N2)ccc1-n1cnc(C)c1 (stereo not given) , log10 of CL free read as 1.18

Notebook: COc1nc(C2=NOC(C)C(c3ccc(Cl)c(F)c3)N2)ccc1-n1cnc(C)c1 (stereo not given) , log10 of CL free read as 0.00

Notebook: COc1nc(C2=NOCC(c3cccc(Cl)c3)N2)ccc1-n1cnc(C)c1 (stereo not given) , log10 of CL free read as 1.18

Notebook: COc1nc(C2=NOCC(c3cccc(C4CC4)c3)N2)ccc1-n1cnc(C)c1 (stereo not given) , log10 of CL free read as 1.46

Notebook: COc1nc(C2=NOC[C@H](c3cc4ccccc4o3)N2)ccc1-n1cnc(C)c1 , log10 of CL free read as 1.71

Notebook: COc1nc(C2=NOCC(c3ccc(C)c(Cl)c3)N2)ccc1-n1cnc(C)c1 (stereo not given) , log10 of CL free read as 2.63

Notebook: COc1nc(C2=NOC(C3CC3)C(c3ccc(Cl)cc3)N2)ccc1-n1cnc(C)c1 (stereo not given) , log10 of CL free read as 0.60

Notebook: COc1nc(C2=NOC(C)C(c3ccc(Cl)c(Cl)c3)N2)ccc1-n1cnc(C)c1 (stereo not given) , log10 of CL free read as 1.30

Notebook: COc1nc(C2=NOC(C)C(c3cccc(Cl)c3)N2)ccc1-n1cnc(C)c1 (stereo not given) , log10 of CL free read as 1.28

====

test-name: Ratio of free drug concentration in mouse brain to EC90 for modulation of gamma secretase in human H4 cells expressing human wild type APP751 assessed as reduction in amyloid beta42 level incubated overnight by ELISA
Format: ADME, cell-based
Exercise: for every item that follows, state its recorded Ratio.

Notebook: COc1nc(C2=NOCC(c3ccc(Cl)cc3)N2)ccc1-n1cnc(C)c1 (stereo not drawn) , Ratio read as 0.6

Notebook: COc1nc(C2=NOCC(c3ccc(F)c(C(F)(F)F)c3)N2)ccc1-n1cnc(C)c1 (stereo not drawn) , Ratio read as 0.7

Notebook: COc1nc(C2=NOCC(c3cc(Cl)cc(Cl)c3)N2)ccc1-n1cnc(C)c1 (stereo not drawn) , Ratio read as 0.8
